Tested on: MDA-MB-231
Test Summary: Reduction in PGE2 levels in MDA-MB-231 cell
Assay type: functional, cell-based
Condition Parameters: Homo sapiens
Calls of active or inactive are those of the source. No cut-off for these calls is given here.
Bench note: report the call from yes (1) for active, no (0) for inactive

>>> print(df.to_string())
                           molecular_string  measured_on  class_name
0  CN(c1ccc([N+](=O)[O-])cc1OC1CCCCC1)S(C)(=O)=O   MDA-MB-231      no (0)
1  CS(=O)(=O)Nc1ccc([N+](=O)[O-])cc1OC1CCCCC1   MDA-MB-231     yes (1)
2  CCC(CC)Oc1cc([N+](=O)[O-])ccc1NS(C)(=O)=O   MDA-MB-231     yes (1)
3  CN(c1ccc([N+](=O)[O-])cc1OCC1CCCCC1)S(C)(=O)=O   MDA-MB-231      no (0)
4  CN(c1ccc([N+](=O)[O-])cc1OC1CCCC1)S(C)(=O)=O   MDA-MB-231      no (0)

Challenge: Please let me know the test result on file for CS(=O)(=O)Nc1ccc([N+](=O)[O-])cc1OC1CCCC1 .
Response given: yes (1)

Challenge: Recorded call for CCC(CC)Oc1cc([N+](=O)[O-])ccc1N(C)S(C)(=O)=O ?
Response given: no (0)
